Attribute: MIC
system: PSEUDOMONAS CEPACIA 296I; assay: In vitro antibacterial activity, MIC, BHI agar dilution; type: cell-based; settings: P. cepacia 296I, unit assumed

>  <MOLECULE>
CC[C@H]1OC(=O)[C@H](C)C(=O)[C@H](C)[C@@H](O[C@@H]2O[C@H](C)C[C@H](N(C)C)[C@H]2O)[C@](C)(OC)C[C@@H](C)C2=NC3CN(CCOc4ccccc4)CC3N3C(=O)O[C@@]1(C)[C@H]3[C@H]2C (stereo partly shown) [Example 128]

>  <MIC>
> 100 µg/mL

$$$$
>  <MOLECULE>
CC[C@H]1OC(=O)[C@H](C)C(=O)[C@H](C)[C@@H](O[C@@H]2O[C@H](C)C[C@H](N(C)C)[C@H]2O)[C@](C)(OC)C[C@@H](C)C2=NC3CCCC3N3C(=O)O[C@@]1(C)[C@H]3[C@H]2C (stereo partly shown) [Example 107]

>  <MIC>
> 100 µg/mL

$$$$
>  <MOLECULE>
CC[C@H]1OC(=O)[C@H](C)C(=O)[C@H](C)[C@@H](O[C@@H]2O[C@H](C)C[C@H](N(C)C)[C@H]2O)[C@](C)(OC)C[C@@H](C)C2=N[C@H](Cc3ccccc3)CN3C(=O)O[C@@]1(C)[C@H]3[C@H]2C [Example 3]

>  <MIC>
> 100 µg/mL

$$$$
>  <MOLECULE>
CCC1OC(=O)C(C)C(=O)C(C)C(OC2OC(C)CC(N(C)C)C2O)C(C)(OC)CC(C)C2=NC(COCc3ccc(N(C)C)cc3)CN3C(=O)OC1(C)C3C2C (stereo not shown) [Example 76]

>  <MIC>
> 100 µg/mL

$$$$
>  <MOLECULE>
CC[C@H]1OC(=O)[C@H](C)C(=O)[C@H](C)[C@@H](O[C@@H]2O[C@H](C)C[C@H](N(C)C)[C@H]2O)[C@](C)(OC)C[C@@H](C)C2=N[C@H](CO)CN3C(=O)O[C@@]1(C)[C@H]3[C@H]2C [Example 52]

>  <MIC>
> 100 µg/mL

$$$$
>  <MOLECULE>
CC[C@H]1OC(=O)[C@H](C)C(=O)[C@H](C)[C@@H](O[C@@H]2O[C@H](C)C[C@H](N(C)C)[C@H]2O)[C@](C)(OC)C[C@@H](C)C2=N[C@H](COCc3ccc(F)cc3)CN3C(=O)O[C@@]1(C)[C@H]3[C@H]2C [Example 101]

>  <MIC>
100 µg/mL

$$$$
>  <MOLECULE>
CC[C@H]1OC(=O)[C@H](C)C(=O)[C@H](C)[C@@H](O[C@@H]2O[C@H](C)C[C@H](N(C)C)[C@H]2O)[C@](C)(OC)C[C@@H](C)C2=NC[C@H](CO)N3C(=O)O[C@@]1(C)[C@H]3[C@H]2C [Example 63]

>  <MIC>
> 100 µg/mL

$$$$
>  <MOLECULE>
CC[C@H]1OC(=O)[C@H](C)C(=O)[C@H](C)[C@@H](O[C@@H]2O[C@H](C)C[C@H](N(C)C)[C@H]2O)[C@](C)(OC)C[C@@H](C)C2=NCC(COC(=O)c3ccnc4ccccc34)N3C(=O)O[C@@]1(C)[C@H]3[C@H]2C (stereo partly shown) [Example 137]

>  <MIC>
50 µg/mL

$$$$
>  <MOLECULE>
CC[C@H]1OC(=O)[C@H](C)C(=O)[C@H](C)[C@@H](O[C@@H]2O[C@H](C)C[C@H](N(C)C)[C@H]2O)[C@](C)(OC)C[C@@H](C)C2=NCC(COC(=O)c3cc4ccccc4n3C)N3C(=O)O[C@@]1(C)[C@H]3[C@H]2C (stereo partly shown) [Example 143]

>  <MIC>
50 µg/mL

$$$$
>  <MOLECULE>
CC[C@H]1OC(=O)[C@H](C)C(=O)[C@H](C)[C@@H](O[C@@H]2O[C@H](C)C[C@H](N(C)C)[C@H]2O)[C@](C)(OC)C[C@@H](C)C2=NC[C@@H](COCc3ccccc3)N3C(=O)O[C@@]1(C)[C@H]3[C@H]2C [Example 37]

>  <MIC>
100 µg/mL

$$$$
>  <MOLECULE>
CC[C@H]1OC(=O)[C@H](C)C(=O)[C@H](C)[C@@H](O[C@@H]2O[C@H](C)C[C@H](N(C)C)[C@H]2O)[C@](C)(OC)C[C@@H](C)C2=N[C@H](COCc3ccncc3)CN3C(=O)O[C@@]1(C)[C@H]3[C@H]2C [Example 77]

>  <MIC>
> 100 µg/mL

$$$$
>  <MOLECULE>
CC[C@H]1OC(=O)[C@H](C)C(=O)[C@H](C)[C@@H](O[C@@H]2O[C@H](C)C[C@H](N(C)C)[C@H]2O)[C@](C)(OC)C[C@@H](C)C2=N[C@H](COCc3ccnc4ccccc34)CN3C(=O)O[C@@]1(C)[C@H]3[C@H]2C [Example 85]

>  <MIC>
100 µg/mL

$$$$
>  <MOLECULE>
CC[C@H]1OC(=O)[C@H](C)C(=O)[C@H](C)[C@@H](O[C@@H]2O[C@H](C)C[C@H](N(C)C)[C@H]2O)[C@](C)(OC)C[C@@H](C)C2=NC3CN(CCc4cccc([N+](=O)[O-])c4)CC3N3C(=O)O[C@@]1(C)[C@H]3[C@H]2C (stereo partly shown) [Example 120]

>  <MIC>
100 µg/mL

$$$$
>  <MOLECULE>
CC[C@H]1OC(=O)[C@H](C)C(=O)[C@H](C)[C@@H](O[C@@H]2O[C@H](C)C[C@H](N(C)C)[C@H]2O)[C@](C)(OC)C[C@@H](C)C2=NC3CN(CCN(C)C)CC3N3C(=O)O[C@@]1(C)[C@H]3[C@H]2C (stereo partly shown) [Example 129]

>  <MIC>
> 100 µg/mL

$$$$
>  <MOLECULE>
CC[C@H]1OC(=O)[C@H](C)C(=O)[C@H](C)[C@@H](O[C@@H]2O[C@H](C)C[C@H](N(C)C)[C@H]2O)[C@](C)(OC)C[C@@H](C)C2=NC3CN(C=O)CC3N3C(=O)O[C@@]1(C)[C@H]3[C@H]2C (stereo partly shown) [Example 124]

>  <MIC>
> 100 µg/mL

$$$$
>  <MOLECULE>
CC[C@H]1OC(=O)[C@H](C)C(=O)[C@H](C)[C@@H](O[C@@H]2O[C@H](C)C[C@H](N(C)C)[C@H]2O)[C@](C)(OC)C[C@@H](C)C2=NC3CN(CCc4ccccc4[N+](=O)[O-])CC3N3C(=O)O[C@@]1(C)[C@H]3[C@H]2C (stereo partly shown) [Example 119]

>  <MIC>
> 100 µg/mL

$$$$

* * *

test system: STAPHYLOCOCCUS EPIDERMIDIS 3519; format: cell-based; conditions: S. epidermidis 3519; BHI agar; unit assumed
MEASURED PROPERTY: MIC (µg/mL)

>  <MOLECULE>
CC[C@H]1OC(=O)[C@H](C)C(=O)[C@H](C)[C@@H](O[C@@H]2O[C@H](C)C[C@H](N(C)C)[C@H]2O)[C@](C)(OC)C[C@@H](C)C2=NC3CN(CCN(C)C)CC3N3C(=O)O[C@@]1(C)[C@H]3[C@H]2C (some centres unmarked) [Example 129]

>  <TARGET UNDER TEST>
STAPHYLOCOCCUS EPIDERMIDIS 3519

>  <MEASURE UNIT>
µg/mL

>  <QUANTITATIVE READOUT>
1.56

$$$$
>  <MOLECULE>
CC[C@H]1OC(=O)[C@H](C)C[C@H](C)[C@@H](O[C@@H]2O[C@H](C)C[C@H](N(C)C)[C@H]2O)[C@](C)(OC)C[C@@H](C)C2=NCCN3C(=O)O[C@@]1(C)[C@H]3[C@H]2C [Example 1]

>  <TARGET UNDER TEST>
STAPHYLOCOCCUS EPIDERMIDIS 3519

>  <MEASURE UNIT>
µg/mL

>  <QUANTITATIVE READOUT>
12.5

$$$$

* * *

system: STAPHYLOCOCCUS AUREUS CMX 553; experiment: In vitro antibacterial activity, MIC, BHI agar dilution; format: cell-based; conditions: S. aureus CMX 553, unit assumed

>  <COMPOUND>
CC[C@H]1OC(=O)[C@H](C)C(=O)[C@H](C)[C@@H](O[C@@H]2O[C@H](C)C[C@H](N(C)C)[C@H]2O)[C@](C)(OC)C[C@@H](C)C2=N[C@H](COCc3ccccn3)CN3C(=O)O[C@@]1(C)[C@H]3[C@H]2C

>  <MIC / µg/mL>
0.39

$$$$
>  <COMPOUND>
CC[C@H]1OC(=O)[C@H](C)C(=O)[C@H](C)[C@@H](O[C@@H]2O[C@H](C)C[C@H](N(C)C)[C@H]2O)[C@](C)(OC)C[C@@H](C)C2=N[C@H](CN(C)Cc3ccccc3)CN3C(=O)O[C@@]1(C)[C@H]3[C@H]2C

>  <MIC / µg/mL>
0.78

$$$$
>  <COMPOUND>
CC[C@H]1OC(=O)[C@H](C)C(=O)[C@H](C)[C@@H](O[C@@H]2O[C@H](C)C[C@H](N(C)C)[C@H]2O)[C@](C)(OC)C[C@@H](C)C2=NC3CN(CCc4ccc([N+](=O)[O-])cc4)CC3N3C(=O)O[C@@]1(C)[C@H]3[C@H]2C (stereo partly shown)

>  <MIC / µg/mL>
0.39

$$$$
>  <COMPOUND>
CCOC(=O)CCN1CC2N=C3C(C)CC(C)(OC)C(OC4OC(C)CC(N(C)C)C4O)C(C)C(=O)C(C)C(=O)OC(CC)C4(C)OC(=O)N(C2C1)C4C3C (stereo not shown)

>  <MIC / µg/mL>
1.56

$$$$
